- target system: T1, TGF-α-hFc (human, UniProt P01135 40-89)
- T1 construct: not shown: Fc portion of human immunoglobulin G1, fused on the C-terminal side
- T1 sequence (P01135 40-89 limits assumed): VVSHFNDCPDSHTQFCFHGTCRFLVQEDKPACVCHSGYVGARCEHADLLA
- test summary: solid phase ELISA, TGFα-hFc on plate
quantity name: OD (solid phase ELISA) (OD)
Dear colleague, please return just the value in OD, with no unit written.

Request: Need OD (solid phase ELISA), item MBL016-8 (antibody, mouse IgG2a, V domains shown) VH: VQLQQSGAELVRPGASVKLSCTASGFNIKDDYMYWVKQRPEQGLEWIGRIDPANGNTKYAPKFQDKATITADTSSNTAYLHLSSLTSEDTAVFYCAYRRAYWGQGTLVTVSA VL: DIQMTQSPSSLSASLGGKVTITCKASQDINKYIAWYQHKPGKGPRLFIHYTSKLQPGIPSRFSGSGSGRDYSFSISNLEPEDIATYYCLQYDNLLYTFGGGTKLEIK
Result: 0.869

Request: What do we get for MBL009-15 (antibody, mouse IgG1, V domains shown) VH: VQLQESGPGLVKPSQSLSLTCTVTGYSITSDYAWNWIRQFPGNKLEWMGYISYSGSTSYNPSLKSRISITRDTSKNQFFLQLNSVTTEDTATYYCARGGITRFAYWGQGTLVTVSA VL: DIQMTQTTSSLSASLGDRLTISCRASQDIRNYLNWYQQKPDGTVKLLIYYTSRLHSGVPSRFSGSGSGTDYSLTISNLEQEDIATYFCQQGNTLPWTFGGGTKLEIK ?
Result: 0.879

Request: What do we get for MBL292-1 (antibody, mouse IgG1, V domains shown) VH: VQLQQSGAELVRPGASVKLSCTASGFNIKDDYMHWMKQRPEQGLEWIGRIDPANGNTKYAPKFQDKATITADTSSNTAYLQLSSLTSEDTAVYYCSRMGLLRGYWGQGTTLTVSS VL: IQMTQSSSSLSVSLGDRVTITCKASVHINSWLAWYQQKPGNAPRLLISGATNLKTGVPSRFSGSASGKDYTLSITSLQTEDVATYYCQQYWDTPWTFGGGTKLEIK ?
Result: 1.04

Request: What do we get for MBL018-1 (antibody, mouse IgG1, V domains shown) VH: EVQLQQSGTVLTRPGASVKMSCKASGYTFTNFWIHWVKQRPGQGLDWIGAIYPGNTNTDYNQKFQGKAKLTAVSSASTAYMELSSLTNEDSAVYYCTRGGAMDYWGQGTSVTVSS VL: IVMTQTPKLLPVSAGDRVTMTCKASQSVDNSVAWYQQKPGQSPKLLIFYASNHYTGVPDRFTASGSGTDFTFTISSVQVEDLAVYFCQQHFSSPRTFGGGTKLEIR ?
Result: 0.703

Request: What do we get for MBL352-34 (antibody, mouse IgG1, V domains shown) VH: VQLQQSGAELVRPGASVKLSCTASGFNIKDDYMHWVKQRPEQGLEWIGRIDPANGHTKYAPKFQDKATITADTSSNTAYLQFSSLTSEDTAVYYCTRMGLRRGYWGQGTTLTVSS VL: IQMTQSSSSLSVSLGDRVTITCKASEHINSWLAWYQQKPGNAPRLLISGATNLKTGVPSRFSGSASGKDYTLSITSLQTEDVATYYCQQYWGTPWTFGGGTKLEIK ?
Result: 0.704
